Origin of the recorded values: the supplement of paper PMC12042874

Assay: amyloid nucleation score (Sup35N fusion, yeast selection) (log enrichment); library NNK2; higher = more nucleation; inactive = no reads after selection;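 also: zero at mode of non-aggregating sequences after 7 days selection at 30°C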
If the reported amyloid nucleation score equals or exceeds 0.9, assign satisfied. If not, assign not satisfied.

Task item: Decide: is the reported value of amyloid nucleation score for VLSMVVDKCLCTMCIQAIVL equal to or greater than 0.9?
Reply: satisfied

Task item: Param item: AFESKAPGRSSLVGIACSYS
Reply: not satisfied

Task item: Param item: QFVGFVRWFVWEWGLLVID
Reply: not satisfied

Task item: Param item: FRWYFNVAATCGNRAPGRNV
Reply: satisfied

Task item: Param item: LDLDMRGKHFVFHHTVKHAI
Reply: satisfied

Task item: Param item: WTRAVKPPV
Reply: not satisfied

Task item: Param item: VMRAMFSRAPFGPRNSSPLN
Reply: not satisfied

Task item: Param item: NFHLSVRSDSYVL
Reply: satisfied

Task item: Param item: MRCKRYECSGDSWWGYSFAK
Reply: not satisfied

Task item: Param item: HNSCVSITSKLQCPLRTVSG
Reply: not satisfied

Task item: Param item: QLNIHLMNLRI
Reply: satisfied

Task item: Param item: PALCVNAVTKIDRNNCYDNG
Reply: satisfied

Task item: Param item: DLWGVI
Reply: satisfied

Task item: Param item: SMRISHTGAQQDLDDCAMRK
Reply: not satisfied

Task item: Param item: FISSVIIGYSDPGVEGILLV
Reply: not satisfied

Task item: Param item: GGSRTRSCQDRAHEGGK
Reply: satisfied

Task item: Param item: RQARSCIVGDGSWRGCLIKV
Reply: satisfied

Task item: Param item: WRMGTPNIRMLC
Reply: not satisfied

Task item: Param item: PISNAYCMGTNRSLRIGIRC
Reply: not satisfied

Task item: Param item: YYFFCVNGGHDMGAILNMLW
Reply: satisfied

Task item: Param item: MDFYCRWVVWFQEGNF
Reply: satisfied

Task item: Param item: DFNSDFAGLLLDTNKYYIHD
Reply: not satisfied

Task item: Param item: SIIYISWSVRHHYVKVG
Reply: not satisfied

Task item: Param item: HVYYTVNLVLVNLYPLYFFT
Reply: satisfied

Task item: Param item: VISSLSISCYDHSVYVKAVK
Reply: not satisfied

Task item: Param item: ARCNCL
Reply: not satisfied

----------
Assay: amyloid nucleation score (Sup35N fusion, yeast selection) (log enrichment); library NNK3; higher = more nucleation; inactive = no reads after selection
Outcome measure: amyloid nucleation score

| Substance | amyloid nucleation score |
| --- | --- |
| YGQGSGGIGRRVAGQDCNLI | inactive |
| RVRLIH | inactive |
| VVIFFRIQRVTCVWNVLL | inactive |
| CVSGASKVNWGSCY | inactive |
| EDLVLRIDSTAACAELEKWL | inactive |
| WVRRYV | inactive |
| SGISIVIPFPRGVQMT | -0.47 |
| RHGEIYAHYKMFVCRLDEVR | inactive |

Task item: Which amyloid nucleation score is reported for this substance? DFYGYSY
Reply: inactive

Task item: Param item: SQLRMFRVARVLIAEVNAP
Reply: inactive

Task item: Param item: PRLNMGCMLFSEYTYCQMIL
Reply: 1.1

Task item: Param item: AEYKNGTLRRRTRRVKSRRI
Reply: inactive

Task item: Param item: SRVLTYDT
Reply: inactive

Task item: Param item: VKRGFEWFCSMTHFNTSCIR
Reply: inactive
